Target: T1, canine NGF tagged at the C-terminus with the Flag tag (canine, UniProt A0A8I3PYI3 122-241)
T1 construct: mature; Expressed with baculovirus technology; also called feline NGF (processed form identical)
T1 sequence (A0A8I3PYI3 entry or part of it): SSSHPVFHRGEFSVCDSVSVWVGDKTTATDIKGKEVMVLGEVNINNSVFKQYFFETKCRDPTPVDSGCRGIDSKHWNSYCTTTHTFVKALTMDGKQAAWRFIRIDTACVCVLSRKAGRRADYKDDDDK
Assay: SPR off-rate screen, Fab-SASA on BSA chip
Would you kindly list koff for each of these binders?
Numbers only, in s⁻¹.

Please state, for each entry, its recorded koff.
1. felinized clone 101 Fab-SASA variant H55L (VL) (Fab, V domains shown, not shown: small tags and cut ends) VH: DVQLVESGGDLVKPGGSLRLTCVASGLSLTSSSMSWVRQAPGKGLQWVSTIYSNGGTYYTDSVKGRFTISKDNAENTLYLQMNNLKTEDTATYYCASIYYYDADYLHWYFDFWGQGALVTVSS VL: EIQMTQSPTSLSASVGDRVTITCRASEGISNNLSWYQQTPGKAPKLLIYATSNLLSGVPSRFSGSGSGTDFTLTISSLQPEDFATYYCQQGYKWPLTFGGGTKLEITR
2. felinized clone 101 Fab-SASA variant K64E (VH) (Fab, V domains shown, not shown: small tags and cut ends) VH: DVQLVESGGDLVKPGGSLRLTCVASGLSLTSSSMSWVRQAPGKGLQWVSTIYSNGGTYYTDSVEGRFTISKDNAENTLYLQMNNLKTEDTATYYCASIYYYDADYLHWYFDFWGQGALVTVSS VL: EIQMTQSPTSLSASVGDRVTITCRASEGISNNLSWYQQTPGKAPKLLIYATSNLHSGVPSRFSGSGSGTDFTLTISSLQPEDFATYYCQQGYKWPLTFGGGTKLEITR
3. felinized clone 101 Fab-SASA variant S97H (VH) (Fab, V domains shown, not shown: small tags and cut ends) VH: DVQLVESGGDLVKPGGSLRLTCVASGLSLTSSSMSWVRQAPGKGLQWVSTIYSNGGTYYTDSVKGRFTISKDNAENTLYLQMNNLKTEDTATYYCAHIYYYDADYLHWYFDFWGQGALVTVSS VL: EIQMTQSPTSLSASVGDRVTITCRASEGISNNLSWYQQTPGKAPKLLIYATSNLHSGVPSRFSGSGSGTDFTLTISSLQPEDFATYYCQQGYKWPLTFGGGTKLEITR
4. felinized clone 101 Fab-SASA variant S56E (VL) (Fab, V domains shown, not shown: small tags and cut ends) VH: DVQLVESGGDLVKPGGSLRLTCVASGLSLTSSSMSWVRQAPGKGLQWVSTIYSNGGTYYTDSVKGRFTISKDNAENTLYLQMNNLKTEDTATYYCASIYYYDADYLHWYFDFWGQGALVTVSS VL: EIQMTQSPTSLSASVGDRVTITCRASEGISNNLSWYQQTPGKAPKLLIYATSNLHEGVPSRFSGSGSGTDFTLTISSLQPEDFATYYCQQGYKWPLTFGGGTKLEITR
5. felinized clone 101 Fab-SASA variant S30L (VL) (Fab, V domains shown, not shown: small tags and cut ends) VH: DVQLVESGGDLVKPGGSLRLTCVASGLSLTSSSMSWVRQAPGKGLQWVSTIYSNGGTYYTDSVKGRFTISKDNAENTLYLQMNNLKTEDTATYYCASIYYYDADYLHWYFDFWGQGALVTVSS VL: EIQMTQSPTSLSASVGDRVTITCRASEGILNNLSWYQQTPGKAPKLLIYATSNLHSGVPSRFSGSGSGTDFTLTISSLQPEDFATYYCQQGYKWPLTFGGGTKLEITR
6. felinized clone 101 Fab-SASA variant H55M (VL) (Fab, V domains shown, not shown: small tags and cut ends) VH: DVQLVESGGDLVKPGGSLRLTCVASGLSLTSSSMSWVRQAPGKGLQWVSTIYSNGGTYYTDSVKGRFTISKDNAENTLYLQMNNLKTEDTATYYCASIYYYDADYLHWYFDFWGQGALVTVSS VL: EIQMTQSPTSLSASVGDRVTITCRASEGISNNLSWYQQTPGKAPKLLIYATSNLMSGVPSRFSGSGSGTDFTLTISSLQPEDFATYYCQQGYKWPLTFGGGTKLEITR

Result:
[0.000418, 0.000476, 0.000533, 0.000809, 0.000507, 0.000312]

Report koff for every entry below.
1. felinized clone 101 Fab-SASA variant S28H (VH) (Fab, V domains shown, not shown: small tags and cut ends) VH: DVQLVESGGDLVKPGGSLRLTCVASGLHLTSSSMSWVRQAPGKGLQWVSTIYSNGGTYYTDSVKGRFTISKDNAENTLYLQMNNLKTEDTATYYCASIYYYDADYLHWYFDFWGQGALVTVSS VL: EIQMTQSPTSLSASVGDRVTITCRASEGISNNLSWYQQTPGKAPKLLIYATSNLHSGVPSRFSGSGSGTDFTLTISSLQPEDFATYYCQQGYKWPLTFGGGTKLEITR
2. felinized clone 101 Fab-SASA variant T60S (VH) (Fab, V domains shown, not shown: small tags and cut ends) VH: DVQLVESGGDLVKPGGSLRLTCVASGLSLTSSSMSWVRQAPGKGLQWVSTIYSNGGTYYSDSVKGRFTISKDNAENTLYLQMNNLKTEDTATYYCASIYYYDADYLHWYFDFWGQGALVTVSS VL: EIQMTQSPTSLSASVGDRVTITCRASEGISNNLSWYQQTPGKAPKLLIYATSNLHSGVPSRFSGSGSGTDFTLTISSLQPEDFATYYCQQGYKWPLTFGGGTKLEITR
3. felinized clone 101 Fab-SASA variant S97M (VH) (Fab, V domains shown, not shown: small tags and cut ends) VH: DVQLVESGGDLVKPGGSLRLTCVASGLSLTSSSMSWVRQAPGKGLQWVSTIYSNGGTYYTDSVKGRFTISKDNAENTLYLQMNNLKTEDTATYYCAMIYYYDADYLHWYFDFWGQGALVTVSS VL: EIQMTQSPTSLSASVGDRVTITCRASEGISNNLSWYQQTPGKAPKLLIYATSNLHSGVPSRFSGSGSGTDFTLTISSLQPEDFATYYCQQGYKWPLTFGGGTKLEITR
4. felinized clone 101 Fab-SASA variant Y58D (VH) (Fab, V domains shown, not shown: small tags and cut ends) VH: DVQLVESGGDLVKPGGSLRLTCVASGLSLTSSSMSWVRQAPGKGLQWVSTIYSNGGTDYTDSVKGRFTISKDNAENTLYLQMNNLKTEDTATYYCASIYYYDADYLHWYFDFWGQGALVTVSS VL: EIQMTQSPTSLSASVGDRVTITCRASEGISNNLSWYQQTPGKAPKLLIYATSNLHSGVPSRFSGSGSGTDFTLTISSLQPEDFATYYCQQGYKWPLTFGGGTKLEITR

Result:
1: 0.000802; 2: 0.000573; 3: 0.000466; 4: 0.000562
